test system: cytochrome P450 2B4 (Oryctolagus cuniculus, UniProt P00178, H226Y)
Sequence (P00178 28-491 H226Y): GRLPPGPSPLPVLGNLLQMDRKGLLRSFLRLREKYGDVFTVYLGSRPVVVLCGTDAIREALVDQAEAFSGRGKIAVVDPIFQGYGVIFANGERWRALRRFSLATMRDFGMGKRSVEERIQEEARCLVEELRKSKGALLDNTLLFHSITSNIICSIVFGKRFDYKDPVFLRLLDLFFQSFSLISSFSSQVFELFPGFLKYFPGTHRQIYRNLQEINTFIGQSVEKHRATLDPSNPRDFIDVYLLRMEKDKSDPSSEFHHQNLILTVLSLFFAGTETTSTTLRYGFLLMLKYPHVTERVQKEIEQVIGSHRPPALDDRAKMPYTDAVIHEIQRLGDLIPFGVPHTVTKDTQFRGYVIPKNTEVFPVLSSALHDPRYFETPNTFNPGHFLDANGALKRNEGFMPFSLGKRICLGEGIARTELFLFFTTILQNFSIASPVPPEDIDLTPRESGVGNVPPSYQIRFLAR
test name: UV-visible difference spectral titration
Type: binding
parameter measured: Kd (mM)
Write the number in mM without appending the unit.

Sure, the documented Kd for Cc1c(N)c(=O)n(-c2ccccc2)n1C [AAP, aminoantipyrine] is 2.6

---

test system: cytochrome P450 2B4 (Oryctolagus cuniculus, UniProt P00178, H226Y)
test name: UV-visible difference spectral titration
Type: binding
parameter measured: pKd
The value called pKd is obtained by taking minus log10 of the concentration in mol/L.

Sure, the documented pKd for C[C@@H](Cc1ccccc1)N(C)Cc1ccccc1 [BP, benzphetamine] is 4.47
